Entries and their inhibition
Measurement target: Cysteine protease ATG4B (Homo sapiens)
Assay comment: blockers of ATG4B cysteine protease activity – biochemical, fluorescence, uHTS, primary screen (AID 504462)
Measurement setup: ATG4B cleavage of LC3-PLA2, NBD-HPC fluorescence, 1 h; at 8.33 µM; hits give high values
Among all 340,000 compounds or so, about 1,700 (0.5%) were called active. Shown is part of a subset that was picked to be rich in actives.
// units = %; emit number, no label

Would you please give the reported inhibition of CCOC(=O)C1(CCc2ccccc2)CCN(Cc2ccco2)CC1 with Cysteine protease ATG4B (Homo sapiens)?
-6.2

====

Measurement target: Cysteine protease ATG4B (Homo sapiens)
Assay comment: blockers of ATG4B cysteine protease activity – biochemical, fluorescence, uHTS, primary screen (AID 504462)
Measurement setup: ATG4B cleavage of LC3-PLA2, NBD-HPC fluorescence, 1 h; at 8.33 µM; hits give high values
About 1,700 (0.5%) of roughly 340,000 compounds were called active. Shown is part of a subset that was picked to be rich in actives.
Each entry below carries its recorded inhibition.
Write it as a number; the unit % goes unstated.

Give me measured inhibition, please, for this compound: COC(=O)COc1cc(C)cc2oc(=O)c3c(c12)CCCC3
-8.24

Identify the reported inhibition for the following entry. CCN1CCN(C(=O)Cc2coc3cc(C)cc(C)c23)CC1
-5.73

Please give the documented inhibition of Cc1cc(OCc2cc(C(=O)O)oc2C)c2c3c(c(=O)oc2c1)CCCC3
48.7

Origin of values: PubChem BioAssay AID504462
